System: CTNNB1
Protocol Details: In vitro DMD assay: mRNA silencing enhancement by peptide conjugates after siRNA-IV treatment
Format: cell-based
Test Conditions: Targeted peptide dose 5000 nM; primary mouse hepatocytes; siRNA-IV 125 nM baseline
Where no end group is shown, it is not given here. [ ]: non-standard residue; d: D form. TGN = not defined here
Parameter In vitro dddCt (vs. baseline SCE dose): see the listing below.

Substance	In vitro dddCt (vs. baseline SCE dose)
TGN-S-S-SEQ ID NO: 1741 (L) (GLFGALAEALAEALAEHLAEALAEALEALAAGGSC(TGN); reading uncertain; also: TGN linked to Cys via disulfide, TGN not defined; listed as Homo sapiens)	−0.58
TGN-S-S-SEQ ID NO: 1746 (D): TGN-S-S-peptide; peptide CEALFGKINAIFIGKL ([dC][dE][dA][dL][dF]G[dK][dI][dN][dA][dI][dF][dI]G[dK][dL]; not fully specified (residue 1); also: disulfide to TGN peptide via Cys1; listed as Homo sapiens)	−0.04
TGN-S-S-Seq-ID-61 (D) (CRRQRRKKRGYGYWWDILGKWGNEIFGEIAEFLG; not fully specified; TGN disulfide conjugate; D-amino acids; listed as Homo sapiens)	−0.55
TGN-S-S-Seq-ID-54 (L) (C(TGN)FFGAIWEFIRSILEGLIDGWYGYGRKKRRQRR; reading uncertain; also: disulfide-linked to TGN peptide via Cys; listed as Homo sapiens)	0.07

###

System: CTNNB1
Protocol Details: In vitro DMD assay: mRNA silencing enhancement by peptide conjugates after siRNA-IV treatment
Assay type: cell-based
Test Conditions: Targeted peptide dose 200 nM; primary mouse hepatocytes; siRNA-IV 125 nM baseline
Where no end group is shown, it is not given here. [ ]: non-standard residue; d: D form. TGN = not defined here
Listing of recorded In vitro dddCt (vs. baseline SCE dose) by entry.

Substance	In vitro dddCt (vs. baseline SCE dose)
TGN-S-S-Seq-ID-37 (L) (C(TGN)IFGAIAGFIKNIWKGLIDWWYG; reading uncertain; also: disulfide-linked to TGN peptide via Cys; listed as Homo sapiens)	−0.01
TGN-S-S-SEQ ID NO: 1740 (L): TGN-S-S-peptide; peptide GLFEAIEGFIENGWEGLAELAEALEALAAGGSC (GLFEAIEGFIENGWEGLAELAEALEALAAGGSC(TGN); reading uncertain; also: TGN linked to Cys via disulfide, TGN not defined; listed as Homo sapiens)	−0.07
TGN-S-S-SEQ ID NO: 1746 (D): TGN-S-S-peptide; peptide CEALFGKINAIFIGKL ([dC][dE][dA][dL][dF]G[dK][dI][dN][dA][dI][dF][dI]G[dK][dL]; not fully specified (residue 1); also: disulfide to TGN peptide via Cys1; listed as Homo sapiens)	−0.07
TGN-S-S-Seq-ID-61 (D) (CRRQRRKKRGYGYWWDILGKWGNEIFGEIAEFLG; not fully specified; TGN disulfide conjugate; D-amino acids; listed as Homo sapiens)	0.01
TGN-S-S-SEQ ID NO: 1713 (L) (C(TGN)GLRHGELEELSHEEGLENLIDWWNG; reading uncertain; also: TGN disulfide conjugate at Cys1; listed as Homo sapiens)	0.15

###

System: CTNNB1
Protocol Details: In vitro DMD assay: mRNA silencing enhancement by peptide conjugates after siRNA-IV treatment
Type: cell-based
Test Conditions: Targeted peptide dose 5000 nM; primary mouse hepatocytes; siRNA-IV 125 nM baseline
Where no end group is shown, it is not given here. TGN = not defined here
Threshold -0.3. In vitro dddCt (vs. baseline SCE dose) below it: true. In vitro dddCt (vs. baseline SCE dose) at it or above: false.

Substance	Class Assignment
TGN-S-S-SEQ ID NO: 1713 (L) (C(TGN)GLRHGELEELSHEEGLENLIDWWNG; reading uncertain; also: TGN disulfide conjugate at Cys1; listed as Homo sapiens)	false
TGN-S-S-Seq-ID-37 (L) (C(TGN)IFGAIAGFIKNIWKGLIDWWYG; reading uncertain; also: disulfide-linked to TGN peptide via Cys; listed as Homo sapiens)	true
TGN-S-S-Seq-ID-55 (L) (C(TGN)GLFHALLHLLHSLWHLLLHAWYGYGRKKRRQRR; reading uncertain; also: disulfide-linked to TGN peptide via Cys; listed as Homo sapiens)	false
TGN-S-S-Seq-ID-56 (L) (C(TGN)GLFHALLHLLHSLWHLLLHAWYGYGHKKHHQHR; reading uncertain; also: disulfide-linked to TGN peptide via Cys; listed as Homo sapiens)	true
